Every entry's value here was drawn from ChEMBL document CHEMBL1150401.

tested on: Salmonella typhimurium; assay: Mutagenic activity in Salmonella Typhimurium TA100 assessed as number of his+ revertants at 1000 ug/plate after 48 to 72 hrs by Ames test in presence of S9 fraction; assay type: toxicity, organism-based; settings: salmonella enterica subsp. enterica serovar typhimurium
MEASURED PROPERTY: Activity

{"columns": ["CPD SMILES", "ASSAY TARGET", "MEASURED PROPERTY", "RECORDED NUMBER"],
 "data": [
  ["C/C=C/c1cc(OC)c(OC)c(OC)c1", "Salmonella typhimurium", "Activity", 87],
  ["C/C=C/c1c(OC)ccc(OC)c1OC.CC(C)CCC[C@@H](C)[C@H]1CC[C@H]2[C@@H]3CC=C4C[C@@H](O)CC[C@]4(C)[C@H]3CC[C@]12C", "Salmonella typhimurium", "Activity", 162],
  ["C/C=C/c1c(OC)cc(OC)cc1OC", "Salmonella typhimurium", "Activity", 126],
  ["C/C=C/c1ccc(OC)c(OC)c1OC", "Salmonella typhimurium", "Activity", 132]
]}
